Target: T1, eukaryotic murine La protein (mLa) (murine, UniProt P32067 1-415)
T1 construct: In total extracts or fixed cells; also called endogenous mLa protein; eukaryote-produced murine La protein
T1 sequence (looked up): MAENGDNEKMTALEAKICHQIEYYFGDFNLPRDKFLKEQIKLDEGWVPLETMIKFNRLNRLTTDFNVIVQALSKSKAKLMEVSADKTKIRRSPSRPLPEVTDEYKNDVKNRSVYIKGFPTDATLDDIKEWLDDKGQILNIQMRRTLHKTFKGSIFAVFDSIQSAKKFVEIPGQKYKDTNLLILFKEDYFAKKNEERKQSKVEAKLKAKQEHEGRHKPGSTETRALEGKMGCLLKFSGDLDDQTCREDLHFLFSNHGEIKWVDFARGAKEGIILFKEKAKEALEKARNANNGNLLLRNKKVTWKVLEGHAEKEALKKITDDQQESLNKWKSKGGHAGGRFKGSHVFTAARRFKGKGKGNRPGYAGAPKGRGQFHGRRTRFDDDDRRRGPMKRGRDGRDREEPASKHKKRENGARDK
Assay: immunoblot, 3T3 total extract
measured property: binding result

>  <binder>
anti-La monoclonal antibody 22A (antibody, IgG1, V domains shown) VH: QVKLEESGPELVKPGAPVKISCKTSGYTFTNYYIYWVKQRPGQGLEWIGYIYPGNGGTAYNQKFKDKATLTADNPSNTAYMQLSSLTSEDSAVYLCARRGALGYYFDYWGQGTTLTVSS VL: QIVLTQSPAIMSASPGEKVTMTCSASSSVSYMYWYQQKSGTSPKRWIYDTSKLASGVPARFSGSGSGTSYSLTISSMEAEDAATYYCQQWSSNPQFGTGTKLEVKR

>  <result>
no binding

$$$$
>  <binder>
anti-La monoclonal antibody 32A (antibody, IgG1, V domains shown) VH: VQLQQSGAELARPGASVKLSCKASGYTFTTYGLTWVKQRTGQGLEWIGEIFPGSGTTFYNEKFNDKATLTADKSSSTAYMQLTSLTSEDSAVYFCARYSNYPYYFDYWGQGTTLTVSS VL: QIVLTQSPTIMSASPGEKVTISCSASSSVSYMYWYQQKPGSSPKPWIYRTSNLASGVPDRFSGSGSGTSYSLTISSMEAEDAATYYCQQYHSYPRTFGGGTKLEIKR

>  <result>
no binding

$$$$
>  <binder>
anti-La monoclonal antibody 312B (antibody, IgG1, V domains shown) VH: QVKLQESGAELMKPGSSVKFSCKAAGYTFTDYWIEWLKQRPGHGLEWIGEILPGSVSIKYNEKFKGKATFTADTSSNTAYMQLSSLTSEDSAVYYCARSRSIYDGYFYYWGQGTTLTVSS VL: DIVMTQSTASLSASVGETVTITCRASENIYTYLAWYQQKQGKSPQLLVYNAKTLAEGVPSRFSGSGSGTQFSLRINSLQPEDFGSYYCQHHYGTPYTFGGGTKLEIK

>  <result>
binds

$$$$
